Target: T1, HMGB1-His tag protein (human, UniProt P09429 1-215, limits assumed)
T1 construct: Bought, HEK293 cell derived; also called human HMGB1; HMGB1-His protein; not shown: His tag
T1 sequence (looked up): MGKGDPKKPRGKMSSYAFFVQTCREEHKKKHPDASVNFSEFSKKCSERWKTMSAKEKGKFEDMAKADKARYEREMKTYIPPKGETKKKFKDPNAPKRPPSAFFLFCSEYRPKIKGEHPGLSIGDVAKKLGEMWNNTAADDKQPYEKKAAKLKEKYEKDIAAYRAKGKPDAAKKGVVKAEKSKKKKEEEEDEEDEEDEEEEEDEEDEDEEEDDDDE
Assay: ELISA, HMGB1-His coated at 0.1 µg/mL, fusion protein titrated
pEC50: −log10 of the molar value.
experimental readout: pEC50

INSERT INTO measurements (binder, reported_value) VALUES
  ('SETTTGTSSNSSQSTSNSGLAPNPTNATTKAAG (Fc fusion, UniProt P25063 27-59, looked up, not shown: Fc part) [CD24Fc (producing cell not stated)]', 4.29);
